B1: Twister Ribozyme (parent)
chain: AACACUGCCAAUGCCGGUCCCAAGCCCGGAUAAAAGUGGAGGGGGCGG

# Variants of: B1
# assay_explanation: self-cleavage, relative activity (ratio to wild type); higher = more cleavage; co-transcriptional
readout_kind: self-cleavage
Respond numerically, and do not add a unit to the figure.

Task: // self-cleavage lookup, key: C27A U31A
Output: 0.676

Task: # repeat for A10U A32C
Output: 0.983

Task: Also need C5G C27G , thanks.
Output: 0.0623

Task: Here is the next variant: A4U G39C
Output: 0.0848

Task: Lookup A32C G48C
Output: 1.12

Task: What do you have for A4G U12C ?
Output: 0.811

Task: Check A35G G36U too.
Output: 0.765

Task: And what about the variant C3A U31C ?
Output: 0.224

Task: Can you handle A4U A10G next?
Output: 0.125

Task: Lookup A2G C14G
Output: 0.136

Task: Try U18A G41C next.
Output: 0.0769

Task: And what about the variant G24U G36A ?
Output: 0.124
